All figures here come from paper PMC11858207.

Provide the reported pKd of each item.
systemUnderTest: His-Sumo-DNPH1 (2′-deoxynucleoside 5′-phosphate N-hydrolase 1) (Homo sapiens)
Sequence (O43598 1-174): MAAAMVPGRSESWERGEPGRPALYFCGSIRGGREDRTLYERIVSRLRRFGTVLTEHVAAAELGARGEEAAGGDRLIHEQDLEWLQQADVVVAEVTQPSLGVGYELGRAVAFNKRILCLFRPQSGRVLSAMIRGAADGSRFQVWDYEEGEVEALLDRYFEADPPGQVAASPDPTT
pKd: −log10 of the molar value.

QUERY: Determine from records and report pKd for `CC(C)=CCc1cc([C@@H]2CC(=O)c3ccc(O)c(CC=C(C)C)c3O2)ccc1O`
RESULT: < 4.00

QUERY: Determine from records and report pKd for `CC(C)=CCc1c(-c2ccc(O)cc2O)oc2c(CC=C(C)C)c(O)cc(O)c2c1=O`
RESULT: < 4.00

QUERY: Determine from records and report pKd for `O=c1c(-c2ccc(O)cc2)coc2cc(O)cc(O)c12`
RESULT: < 4.00

QUERY: Determine from records and report pKd for `CC(C)=CCc1c(-c2ccc(O)cc2O)oc2c3c(cc(O)c2c1=O)OC(C)(C)C=C3`
RESULT: 4.16

QUERY: Determine from records and report pKd for COc1cc(O)c(CC=C(C)C)c2c1C(=O)CC(c1ccc(O)cc1)O2 (centres unmarked)
RESULT: < 4.00

QUERY: Determine from records and report pKd for `CC(C)=CCc1c(O)ccc2c1O[C@H](c1ccc(O)cc1)CC2=O`
RESULT: < 4.00

QUERY: Determine from records and report pKd for `O=c1c(-c2ccc(O)cc2)coc2cc(O)ccc12`
RESULT: < 4.00

QUERY: Determine from records and report pKd for `Oc1ccc(C2=Cc3ccc(O)cc3OC2)cc1`
RESULT: < 4.00
